Biological target: Dual specificity tyrosine-phosphorylation-regulated kinase 1A (Homo sapiens, UniProt Q13627)
MEASURED PARAMETER: IC50

IC50 recorded for this compound, C[C@H]1CC(=O)Nc2cc(C(=O)NCCC3CC3)ccc2N1C(=O)N1CC2CC2C1 (stereo partly specified) , is > 20 µM

* * *

Target: Cyclin-dependent kinase 12 (Homo sapiens, UniProt Q9NYV4)
Sequence (Q9NYV4 whole entry): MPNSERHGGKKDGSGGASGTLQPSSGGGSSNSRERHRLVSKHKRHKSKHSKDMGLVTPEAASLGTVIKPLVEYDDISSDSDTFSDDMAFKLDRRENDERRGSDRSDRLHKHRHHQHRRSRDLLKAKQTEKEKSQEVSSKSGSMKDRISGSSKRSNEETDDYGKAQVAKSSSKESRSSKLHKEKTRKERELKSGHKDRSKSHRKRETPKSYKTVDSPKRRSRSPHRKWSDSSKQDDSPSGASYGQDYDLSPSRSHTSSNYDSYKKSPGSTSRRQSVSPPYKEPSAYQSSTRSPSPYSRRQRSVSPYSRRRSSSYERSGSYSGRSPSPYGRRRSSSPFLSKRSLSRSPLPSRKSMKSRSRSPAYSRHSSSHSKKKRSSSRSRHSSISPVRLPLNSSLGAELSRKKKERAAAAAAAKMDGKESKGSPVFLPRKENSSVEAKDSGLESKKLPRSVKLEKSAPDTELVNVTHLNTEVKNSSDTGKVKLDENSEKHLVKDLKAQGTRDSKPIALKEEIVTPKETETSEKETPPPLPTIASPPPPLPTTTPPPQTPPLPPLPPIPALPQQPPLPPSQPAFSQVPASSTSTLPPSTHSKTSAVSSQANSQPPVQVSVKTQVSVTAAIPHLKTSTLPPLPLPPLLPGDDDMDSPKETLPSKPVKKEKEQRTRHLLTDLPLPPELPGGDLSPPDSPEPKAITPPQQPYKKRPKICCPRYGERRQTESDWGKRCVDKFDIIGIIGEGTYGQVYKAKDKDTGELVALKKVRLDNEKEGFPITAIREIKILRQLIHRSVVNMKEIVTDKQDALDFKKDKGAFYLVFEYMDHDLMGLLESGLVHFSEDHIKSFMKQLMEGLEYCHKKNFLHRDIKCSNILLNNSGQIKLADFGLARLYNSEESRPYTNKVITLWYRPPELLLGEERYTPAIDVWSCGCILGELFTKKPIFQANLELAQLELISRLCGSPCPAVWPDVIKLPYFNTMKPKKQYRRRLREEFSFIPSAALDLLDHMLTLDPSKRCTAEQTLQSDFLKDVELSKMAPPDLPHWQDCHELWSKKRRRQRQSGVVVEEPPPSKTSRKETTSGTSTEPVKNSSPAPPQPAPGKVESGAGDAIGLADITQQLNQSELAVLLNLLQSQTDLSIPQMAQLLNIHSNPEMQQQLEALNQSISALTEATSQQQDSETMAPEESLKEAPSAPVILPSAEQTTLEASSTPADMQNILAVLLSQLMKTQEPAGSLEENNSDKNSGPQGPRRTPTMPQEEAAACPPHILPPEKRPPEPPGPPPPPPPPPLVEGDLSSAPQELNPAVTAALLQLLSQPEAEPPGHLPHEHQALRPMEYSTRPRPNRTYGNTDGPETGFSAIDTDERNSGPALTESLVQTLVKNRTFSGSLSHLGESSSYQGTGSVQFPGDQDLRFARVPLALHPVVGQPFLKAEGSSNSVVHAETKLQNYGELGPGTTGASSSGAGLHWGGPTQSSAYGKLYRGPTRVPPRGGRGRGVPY
MEASURED PARAMETER: IC50

Just so you know, measured IC50 for C[C@H]1CC(=O)Nc2cc(C(=O)NCCC3CC3)ccc2N1C(=O)N1CC2CC2C1 (stereo partly specified) came out at > 20 µM

* * *

This listing pairs compounds with measured pIC50.
Target: UniProtKB Q9H7B4
Sequence (Q9H7B4 whole entry): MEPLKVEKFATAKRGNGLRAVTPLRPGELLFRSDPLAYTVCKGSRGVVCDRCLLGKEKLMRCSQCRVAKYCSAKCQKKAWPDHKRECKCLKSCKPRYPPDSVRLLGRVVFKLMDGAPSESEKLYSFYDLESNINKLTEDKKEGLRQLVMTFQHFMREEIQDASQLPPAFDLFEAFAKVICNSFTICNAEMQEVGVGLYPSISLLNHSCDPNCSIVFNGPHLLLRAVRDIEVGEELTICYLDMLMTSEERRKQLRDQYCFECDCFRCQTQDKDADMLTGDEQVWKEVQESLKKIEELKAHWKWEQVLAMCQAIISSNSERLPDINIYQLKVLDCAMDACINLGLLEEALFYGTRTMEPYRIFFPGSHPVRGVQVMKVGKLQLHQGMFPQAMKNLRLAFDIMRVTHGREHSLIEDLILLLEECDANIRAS
Assay: Binding affinity to recombinant human SMYD3 expressed in Escherichia coli assessed as catalytic inhibition using DYDNPIFEKFGKGGTYPRRYHVSYHGK-Biotin as substrate by scintillation proximity assay
Worth noting: pIC50 values are minus log10 of concentrations stated in mol/L.

- CC1CC(=O)Nc2cc(C(=O)NCCC3CCC3)ccc2N1C(=O)c1ccccc1 (racemic): 5.73
- C[C@H]1CC(=O)Nc2cc(C(=O)NCCC3CC3)ccc2N1C(=O)N1CCC(F)(F)CC1: 5.63
- C[C@H]1CC(=O)Nc2cc(C(=O)N(C)CCC3CC3)ccc2N1C(=O)N1CC2CC2C1 (some centres undefined): 5.58
- C[C@H]1CC(=O)Nc2cc(C(=O)NCCC3CC3)ccc2N1C(=O)NC1CCNCC1: 6.40
- C[C@H]1CC(=O)Nc2cc(C(=O)NCCC3CC3)ccc2N1C(=O)N1CC2CC2C1 (some centres undefined): 7.06

Then there is this compound:
For record `C[C@H]1CC(=O)Nc2cc(C(=O)NCCC3CC3)ccc2N1C(=O)N1CC[C@H](N)C1.Cl` the listed pIC50 is 6.59

* * *

System: Jurkat
Experiment: Antiproliferative activity against human Jurkat cells assessed as inhibition of cell viability measured for 3 to 5 days by alamar blue staining based assay
Assay type: functional
MEASURED PARAMETER: IC50

Record C[C@H]1CC(=O)Nc2cc(C(=O)NCCC3CC3)ccc2N1C(=O)N1CC2CC2C1 (stereo partly specified) , field IC50: > 10 µM

* * *

Target: Mitogen-activated protein kinase 14 (Homo sapiens)
Sequence (Q16539 whole entry): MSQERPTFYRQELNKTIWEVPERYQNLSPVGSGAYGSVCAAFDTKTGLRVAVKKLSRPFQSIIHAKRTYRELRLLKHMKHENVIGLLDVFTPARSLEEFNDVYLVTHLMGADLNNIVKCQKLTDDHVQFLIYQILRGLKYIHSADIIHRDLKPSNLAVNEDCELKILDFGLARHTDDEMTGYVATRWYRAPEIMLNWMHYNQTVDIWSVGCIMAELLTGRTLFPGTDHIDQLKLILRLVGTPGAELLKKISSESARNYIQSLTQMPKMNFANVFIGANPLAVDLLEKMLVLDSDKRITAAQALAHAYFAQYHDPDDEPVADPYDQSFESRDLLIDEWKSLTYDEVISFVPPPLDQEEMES
Assay: Inhibition of p38alpha (unknown origin) by competition binding assay
pIC50: −log10 of the molar value.
MEASURED PARAMETER: pIC50

Consider C[C@H]1CC(=O)Nc2cc(C(=O)NCCC3CC3)ccc2N1C(=O)N1CC2CC2C1 (stereo partly specified) . Its measured pIC50 is < 4.70

* * *

Biological target: NUAK family SNF1-like kinase 1 (Homo sapiens, UniProt O60285)
Sequence (O60285 whole entry): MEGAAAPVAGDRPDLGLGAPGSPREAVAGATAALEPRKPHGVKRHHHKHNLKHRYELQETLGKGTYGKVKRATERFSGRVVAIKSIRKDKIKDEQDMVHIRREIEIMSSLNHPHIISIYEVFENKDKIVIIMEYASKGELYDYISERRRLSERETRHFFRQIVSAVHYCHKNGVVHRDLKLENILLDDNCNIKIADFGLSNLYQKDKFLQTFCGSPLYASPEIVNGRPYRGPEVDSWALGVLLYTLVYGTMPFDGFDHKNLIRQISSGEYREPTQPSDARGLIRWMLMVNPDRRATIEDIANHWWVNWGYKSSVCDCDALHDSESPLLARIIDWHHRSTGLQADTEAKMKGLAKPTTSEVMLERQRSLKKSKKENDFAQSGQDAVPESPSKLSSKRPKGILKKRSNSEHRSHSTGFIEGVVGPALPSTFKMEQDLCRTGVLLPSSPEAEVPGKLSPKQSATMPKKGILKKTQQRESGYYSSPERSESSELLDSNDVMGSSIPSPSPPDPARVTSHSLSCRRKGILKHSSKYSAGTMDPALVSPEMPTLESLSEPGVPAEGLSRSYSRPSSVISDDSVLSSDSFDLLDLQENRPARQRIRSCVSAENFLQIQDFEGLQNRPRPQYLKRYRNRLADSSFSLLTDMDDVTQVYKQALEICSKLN
MEASURED PARAMETER: IC50

Readout IC50 for C[C@H]1CC(=O)Nc2cc(C(=O)NCCC3CC3)ccc2N1C(=O)N1CC2CC2C1 (stereo partly specified) , test system NUAK family SNF1-like kinase 1 (Homo sapiens, UniProt O60285), was > 20 µM
